The reader will find reported GI50 values listed item by item below.
# System: DMS-114
# protocol-description: NCI tumour cell line growth inhibition, 48 h
Activity calls are given as the source filed them. Cut-off read from the data, not from the text of the source: active = GI50 up to about 1.1 µM and inactive = higher.

// known answers, use as guide
Req: Dear colleague, I am looking for the recorded GI50 of the following compound: CN(/N=C/c1ccnc2ccccc12)c1c([N+](=O)[O-])cc([N+](=O)[O-])cc1[N+](=O)[O-]
Resp: 37.9 µM (inactive)

Req: Dear colleague, I am looking for the recorded GI50 of the following compound: O=C1C2C3SC(c4cc5ccccc5cc43)C2C(=O)N1c1ccccc1 (configuration not stated)
Resp: > 100 µM (inactive)

Req: Dear colleague, I am looking for the recorded GI50 of the following compound: COc1ccc(Nc2nnc(-c3nsc4ccccc34)s2)cc1
Resp: 59.4 µM (inactive)

New cases:
Req: Dear colleague, I am looking for the recorded GI50 of the following compound: O=C1CCCCCCCCCCOC(=O)CCCCCCCCCCO1
Resp: > 100 µM (inactive)

Req: Dear colleague, I am looking for the recorded GI50 of the following compound: O=C1CCN2C(=Nc3cccc4cccc2c34)N1
Resp: > 100 µM (inactive)

Req: Dear colleague, I am looking for the recorded GI50 of the following compound: Cc1c2n(c3ccccc13)CC1C2N(C)OC1(C)C (configuration not stated)
Resp: > 100 µM (inactive)

Req: Dear colleague, I am looking for the recorded GI50 of the following compound: COc1cc(C2(C)SCCCS2)c(I)c(OC)c1OC
Resp: > 100 µM (inactive)

====

# System: SF-295
# protocol-description: NCI tumour cell line growth inhibition, 48 h
Calls of active or inactive are those of the source. No stated cut-off is given here; in the data, active = GI50 up to about 1.1 µM and inactive = higher.
Pick one and only one: active, inactive

Req: What was the test verdict on O=C(O)C1C2CCC(O2)C1C(=O)Nc1cccc2cccnc12 (stereo not drawn) ?
Resp: inactive

Req: What was the test verdict on CCOC(=O)C(NO)C(Sc1ccccc1)c1ccc(OC)cc1 (stereo not drawn) ?
Resp: inactive

Req: What was the test verdict on O=[N+]([O-])C1=Cc2c(O)ccc(O)c2C2OC=CC12 (stereo not drawn) ?
Resp: inactive

Req: What was the test verdict on CC1=NC(=Cc2ccc(Cl)cc2)C(=O)N1n1c(-c2ccccc2)nc2ccccc2c1=O ?
Resp: inactive

Req: What was the test verdict on O=C(NCCCCCCCN1CCCCCCC1)C(C1CCCCC1)C1CCCCC1 ?
Resp: inactive

New cases:
Req: What was the test verdict on CSc1ccc(/C=C2\N=C(c3ccccc3)N(c3nc4c(Cl)cc(Cl)cc4s3)C2=O)cc1 ?
Resp: inactive

Req: What was the test verdict on [O-][S+]1c2ccccc2N=C(c2ccc3ccccc3c2)CC1c1ccccc1F (stereo not drawn) ?
Resp: inactive

Req: What was the test verdict on O=C(OCCN=c1c2ccccc2ccc2ccccc12)c1ccc([N+](=O)[O-])cc1 ?
Resp: inactive

Req: What was the test verdict on COc1cc2c(c(OC)c1OC)-c1ccc(SC)c(=O)cc1[C@@H](NC(=O)C(F)(F)F)CC2 ?
Resp: active

Req: What was the test verdict on O=[N+]([O-])c1ccc(-c2csc(=[N+]3CCCCC3)s2)cc1 ?
Resp: inactive

Req: What was the test verdict on Cc1cn(C2C=CC(COP(=O)(OCC3=CC(=O)c4ccccc4C3=O)N(C)CCCCCl)O2)c(=O)[nH]c1=O (stereo not drawn) ?
Resp: inactive

Req: What was the test verdict on COc1ccc(NC(=S)c2ccc([N+](=O)[O-])o2)cc1 ?
Resp: inactive

Req: What was the test verdict on O=C(O)CCC1C(=O)C2CCN1CC2 (stereo not drawn) ?
Resp: inactive

Req: What was the test verdict on O=C(O)CC(Sc1ccccc1)c1ccccc1 (stereo not drawn) ?
Resp: inactive

Req: What was the test verdict on NS(=O)(=O)c1nnc(NSc2ccc([N+](=O)[O-])cc2)s1 ?
Resp: inactive

====

The reader will find reported GI50 values listed item by item below.
# Tested on: UACC-62
# protocol-description: NCI tumour cell line growth inhibition, 48 h
Calls of active or inactive are those of the source. No stated cut-off is given here; in the data, active = GI50 up to about 1.1 µM and inactive = higher.

// known answers, use as guide
Req: Dear colleague, I am looking for the recorded GI50 of the following compound: C/C(COc1ccccc1)=N\NC(N)=S
Resp: > 100 µM (inactive)

Req: Dear colleague, I am looking for the recorded GI50 of the following compound: CC(C)(C)CC(C)(C)c1ccc(OCCOCC[N+](C)(C)Cc2ccccc2)cc1 [BENZETHONIUM CHLORIDE]
Resp: 1.36 µM (inactive)

Req: Dear colleague, I am looking for the recorded GI50 of the following compound: c1coc(-c2nccc3c2[nH]c2ccccc23)c1
Resp: > 100 µM (inactive)

Req: Dear colleague, I am looking for the recorded GI50 of the following compound: O=C(NCCCCCCCCNC(=O)c1cc(-c2ccccc2)nc2ccccc12)c1cc(-c2ccccc2)nc2ccccc12
Resp: > 100 µM (inactive)

Req: Dear colleague, I am looking for the recorded GI50 of the following compound: CC(C)CC1c2[nH]c3ccccc3c2C[C@H]2C(=O)NC(COC(C)(C)C)C(=O)N12 (some centres undefined)
Resp: 18.2 µM (inactive)

New cases:
Req: Dear colleague, I am looking for the recorded GI50 of the following compound: Nc1ccc(Oc2ccc(C3(c4ccc(Oc5ccc(N)c(O)c5)cc4)C4CC5CC(C4)CC3C5)cc2)cc1O
Resp: 2.69 µM (inactive)

Req: Dear colleague, I am looking for the recorded GI50 of the following compound: C/C=C/[C@@]1(OC(=O)c2ccccc2)C[C@@H]2CCCC[C@@H]21
Resp: 16.7 µM (inactive)

Req: Dear colleague, I am looking for the recorded GI50 of the following compound: COc1cc(C2SC(=N)Nc3c2c(C)nn3C(=O)Cc2ccccc2)cc(OC)c1OC (centres undefined)
Resp: > 100 µM (inactive)

Req: Dear colleague, I am looking for the recorded GI50 of the following compound: c1ccc(-c2cc(-c3cccs3)c(-c3cccs3)s2)cc1
Resp: > 100 µM (inactive)

====

# Test system: MDA-MB-231
# protocol-description: NCI tumour cell line growth inhibition, 48 h
Calls of active or inactive are those of the source. No stated cut-off is given here; in the data, active = GI50 up to about 1.1 µM and inactive = higher.
readout: GI50

Req: Dear colleague, I am looking for the recorded GI50 of the following compound: C[N+](C)(C)/C=N\c1cccc2c1CCCC2
Resp: > 100 µM (inactive)

====

The reader will find reported GI50 values listed item by item below.
# System: SK-OV-3
# protocol-description: NCI tumour cell line growth inhibition, 48 h
Activity calls are given as the source filed them. Rule as the data show it: active = GI50 up to about 1.1 µM and inactive = higher. Residues, ends and D or L forms follow the SMILES beside them. *: point of attachment. Boc = CC(C)(C)OC(=O)*; OBn = c1ccc(CO*)cc1

Req: Dear colleague, I am looking for the recorded GI50 of the following molecule: C=C1C(=O)OC2/C=C(\C)C(O)/C=C\C(C)(O)CC(OC(=O)/C(C)=C/C)C12 (stereo unspecified)
Resp: > 100 µM (inactive)

Req: Dear colleague, I am looking for the recorded GI50 of the following molecule: O=C(O)/C(=C/C=C/c1ccccc1)c1csc(-c2nc(/C(=C\C=C\c3ccccc3)C(=O)O)cs2)n1
Resp: 57.3 µM (inactive)

Req: Dear colleague, I am looking for the recorded GI50 of the following molecule: Cc1nc(N)sc1C(=O)/C=C/c1ccc(/C=C/C(=O)c2sc(NC(=O)CCCCCCCCC(=O)Nc3nc(C)c(C(=O)/C=C/c4ccc(/C=C/C(=O)c5sc(N)nc5C)cc4)s3)nc2C)cc1
Resp: > 100 µM (inactive)

New cases:
Req: Dear colleague, I am looking for the recorded GI50 of the following molecule: C/C(=N\Nc1cc(CN2CCCC2)c(-c2ccc(Cl)cc2)nn1)C(=O)O
Resp: > 100 µM (inactive)

Req: Dear colleague, I am looking for the recorded GI50 of the following molecule: NN/C(=N\c1ccc(Cl)cc1)NS(=O)(=O)c1ccc(S(=O)(=O)c2ccccc2)s1
Resp: 71.9 µM (inactive)

Req: Dear colleague, I am looking for the recorded GI50 of the following molecule: Cn1cccc1-c1ccc(-c2ccc(CO)[se]2)[se]1
Resp: 22.1 µM (inactive)

Req: Dear colleague, I am looking for the recorded GI50 of the following molecule: CC1=CC(C/C(C)=C/COc2ccc3ccc(=O)oc3c2)OC1=O (stereo unspecified)
Resp: > 100 µM (inactive)

Req: Dear colleague, I am looking for the recorded GI50 of the following molecule: COP(=O)(OC)C(O)/C=C(\Cl)c1ccc(Cl)cc1 (stereo unspecified)
Resp: > 100 µM (inactive)

Req: Dear colleague, I am looking for the recorded GI50 of the following molecule: N#C[C@H](c1ccccn1)c1nc2ccccc2nc1Cl
Resp: > 100 µM (inactive)

Req: Dear colleague, I am looking for the recorded GI50 of the following molecule: CCC1C(=O)OCc2c1cc1n(c2=O)CCC12OCCO2 (stereo unspecified)
Resp: > 100 µM (inactive)

Req: Dear colleague, I am looking for the recorded GI50 of the following molecule: CC(NC(=O)CNC(=O)OC(C)(C)C)C(=O)NC(Cc1ccccc1)C(=O)OCc1ccccc1 (stereo not drawn) (Boc-Gly-Ala-Phe-OBn; configuration not given here)
Resp: > 100 µM (inactive)

Req: Dear colleague, I am looking for the recorded GI50 of the following molecule: COc1cc(C(N)=O)c(OC)c(OC)c1OC
Resp: > 100 µM (inactive)

Req: Dear colleague, I am looking for the recorded GI50 of the following molecule: Cc1nc2cc3nc4ccccc4c(O)c3cc2s1
Resp: > 100 µM (inactive)

Req: Dear colleague, I am looking for the recorded GI50 of the following molecule: N#CC(CCN1CCC(Nc2ccccc2)(c2nnnn2C2CCCCC2)CC1)(c1ccccc1)c1ccccc1
Resp: > 100 µM (inactive)

Req: Dear colleague, I am looking for the recorded GI50 of the following molecule: COc1cccc2c1OC1c3ccccc3OCC1C2 (stereo unspecified)
Resp: > 100 µM (inactive)

Req: Dear colleague, I am looking for the recorded GI50 of the following molecule: O=C(Nc1ccc(C(F)(F)F)cc1[N+](=O)[O-])C(=O)C1NC(=S)NC1=O (stereo unspecified)
Resp: > 100 µM (inactive)
